- Tested on: BMM cells
- Assay Protocol: Osteoclastogenic assay of WT, single-point mutated sRANKL and L-RANKL
- Format: cell-based, mouse
- Setup Conditions: BMMs, M-CSF 10 ng/mL, sRANKL protein 25 ng/mL
For each record, write down the corresponding number of osteoclasts (fig. 1f).
Answers are plain numbers.

[[record]]
molecule = "E227A: single-point mutated rat sRANKL (protein, left off: His6, N-terminal, cleaved | SUMO, N-terminal, cleaved, single-point mutated rat sRANKL) KPEAQPFAHLTINAADIPSGSHKVSLSSWYHDRGWAKISNMTLSNGKLRVNQDGFYYLYANICFRHHATSGSVPADYLQLMVYVVKTSIKIPSSHNLMKGGSTKNWSGNSEFHFYSINVGGFFKLRAGEEISVQVSNPSLLDPDQDATYFGAFKVQDID"
readout = "number of osteoclasts (fig. 1f)"
value = 0


# context switch: different molecule, same number of osteoclasts (fig. 1f)
Reported number of osteoclasts (fig. 1f) ( H226A: single-point mutated rat sRANKL (protein, UniProt Q9ESE2 69-318, looked up, variant H226A, extracellular domain, single-point mutated rat sRANKL) extracellular domain: LYFRAQMDPNRISEDSTRCFYRILRLRENTGLQDSTLESEDTEALPDSCRRMKQAFQGAVQRELQHIVGPQRFSGVPAMMEGSWLDVARRGKPEAQPFAHLTINAADIPSGSHKVSLSSWYHDRGWAKISNMTLSNGKLRVNQDGFYYLYANICFRHAETSGSVPADYLQLMVYVVKTSIKIPSSHNLMKGGSTKNWSGNSEFHFYSINVGGFFKLRAGEEISVQVSNPSLLDPDQDATYFGAFKVQDID ) = 0

The measured values listed here are drawn from paper PMC9468151.
